- experimental target: Spindlin1 W62A/W72A/C11orf84 complex (human, UniProt Q9Y657 50-262; Q9BUA3 1-381, W62A | W72A)
- Sequence (Q9Y657 50-262 W62A/W72A, chain 1 of 2): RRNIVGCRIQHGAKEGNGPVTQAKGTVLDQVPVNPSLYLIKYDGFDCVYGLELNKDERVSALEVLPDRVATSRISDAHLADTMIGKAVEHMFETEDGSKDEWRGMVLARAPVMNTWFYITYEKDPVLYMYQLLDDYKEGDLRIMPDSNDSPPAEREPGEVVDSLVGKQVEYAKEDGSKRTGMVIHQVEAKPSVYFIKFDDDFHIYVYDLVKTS
- Sequence (Q9BUA3 whole entry, chain 2 of 2): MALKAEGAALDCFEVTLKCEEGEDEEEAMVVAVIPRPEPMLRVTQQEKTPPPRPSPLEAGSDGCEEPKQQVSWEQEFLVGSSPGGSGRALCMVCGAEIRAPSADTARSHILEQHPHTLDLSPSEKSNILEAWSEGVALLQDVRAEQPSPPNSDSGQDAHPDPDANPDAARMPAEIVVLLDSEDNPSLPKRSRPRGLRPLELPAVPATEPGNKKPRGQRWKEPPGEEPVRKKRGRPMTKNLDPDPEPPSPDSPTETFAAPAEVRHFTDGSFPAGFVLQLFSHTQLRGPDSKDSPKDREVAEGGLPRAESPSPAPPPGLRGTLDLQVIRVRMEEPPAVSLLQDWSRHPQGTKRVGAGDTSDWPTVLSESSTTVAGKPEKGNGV
- protocol notes: ITC
Ends that are not written are not given here. Me3 = trimethyl group on lysine (trimethyl-lysine)
outcome measure: Kd (nM)

- binder: "ARTK(Me3)QTARK(Me3)STG [H3K4me3K9me3 peptide]"
  experimental result: 199
